Value source: PubChem BioAssay (NCI)

- Tested on: IGROV1 ovarian
- Protocol text: NCI tumour cell line growth inhibition, 48 h
Assay endpoint: TGI (µM)
Express it in µM; write the number only.

Past entries and their recorded results:
Compound	Assay endpoint	Value unit	Test value
O=C(CCCCN1CCOCC1)Nc1ccc(Cn2nnc3c2C(=O)c2nnn(Cc4ccc(NC(=O)CCCCN5CCOCC5)cc4)c2C3=O)cc1	TGI	µM	1.46
CC[C@@]1(O)C(=O)OCc2c1cc1n(c2=O)Cc2c-1nc1ccccc1c2Cl	TGI	µM	16
CCOC(=O)c1cn2c(n1)sc1cc(C)c(C)cc12	TGI	µM	56.5
CC(O)CCc1ccc(Oc2c3ccccc3nc3occc23)cc1 (stereo not drawn)	TGI	µM	56.9
C=CCc1cccc2cc(C(N)=O)c(=N)oc12	TGI	µM	90.3

Query string: Hello, please tell me recorded TGI for this one: `Cc1nc2c(o1)C(=O)c1ccccc1C2=Nc1ccccc1`
Result string: 20.6

Query string: Respond only with TGI recorded for `C/C(=N/OC(=O)c1cccc2c(=O)c3ccccc3[nH]c12)[C@H]1CC[C@H]2[C@@H]3CCC4=C/C(=N/OC(=O)c5cccc6c(=O)c7ccccc7[nH]c56)CC[C@]4(C)[C@H]3CC[C@]12C`
Result string: 37.1

Query string: Name the recorded TGI of the item `O=C1O/C(=C\c2ccc(O)c(Br)c2)C(c2ccc(O)c(Cl)c2)=C1Br` in your answer.
Result string: 47.2

---

TGI for assorted compounds
- Tested on: A498 renal
- Protocol text: NCI tumour cell line growth inhibition, 48 h

Check out these entries, answers already filled in.
In [3]: df
Out[3]:
                                   compound  assay_endpoint  test_value
0  CCOC(=O)/C=C1/SC(N2CCCCC2)C(=O)N1CC (configuration not stated)             TGI    > 100 µM
1          C(=C1c2ccccc2-c2ccccc21)c1ccncc1             TGI     10.7 µM
2  CC12OC3(C)OC(=O)C(c4ccccc4)(O1)C3(C)O2 (configuration not stated)             TGI    > 100 µM
3          O=C1c2cccc(O)c2C(=O)c2cccc(O)c21             TGI    > 100 µM
4  CC1=C(c2cc(C(=O)Nc3cc(C)ccc3C)nc(N)n2)Sc2ccccc2N1             TGI    > 100 µM

Query string: // Input: COc1cc2c(cc1OCc1ccccc1)N=CC1C[C@@H](O)CN1C2=O (some centres not stated) . Output its TGI only.
Result string: 5.25 µM

Query string: Name the recorded TGI of the compound listed here: `O=C(Nc1ccccc1)c1cc(S(=O)(=O)n2cc[nH]c2=O)c(S)cc1Cl`
Result string: > 100 µM

Query string: Using known records, supply TGI for `c1ccc2c(CC3NCCN3)cccc2c1`
Result string: > 100 µM

Query string: Tell us which TGI value is on record for CCCC(=O)c1c(NOC2OCC(OC(C)=O)C(OC(C)=O)C2OC(C)=O)nc(OC)n(C)c1=O (configuration not stated)
Result string: > 100 µM

---

- Test system: MALME-3M melanoma
- Protocol text: NCI tumour cell line growth inhibition, 48 h
Assay endpoint: TGI

>>> print(df.to_string())
                                   compound  target_under_test  assay_endpoint  test_value
0  CCOc1ccc2nc(NC(=O)C(=O)C(C#N)CC(C)(C)C=O)sc2c1 (configuration not stated)  MALME-3M melanoma             TGI    > 100 µM
1  Cc1cc(C2CC(O)C(CO)O2)c(Cl)cc1Cl (configuration not stated)  MALME-3M melanoma             TGI    > 100 µM
2  Cc1nn(CCO)c(C)c1N=[N+]([O-])c1c(C)nn(CCO)c1C  MALME-3M melanoma             TGI      2.4 µM
3  COc1cc([C@@H]2C3C(=O)c4ccccc4C3[C@@H](c3cc(OC)c(OC)c(OC)c3)C23Cc2ccccc2C3=O)cc(OC)c1OC (some centres not stated)  MALME-3M melanoma             TGI    > 100 µM
4  CSC(Cc1ccc2c(c1)Sc1ccccc1O2)=[N+]1CCOCC1  MALME-3M melanoma             TGI     90.9 µM
5  COc1ccc(OC)c2[nH]c(Sc3c([N+](=O)[O-])ncn3C)nc12  MALME-3M melanoma             TGI     29.3 µM

Query string: # return recorded TGI for input `Cc1cc([N+](=O)[O-])ccc1Sc1c2ccccc2nc2ccccc12`
Result string: > 100 µM

Query string: Supply reported TGI belonging to this compound: `O=c1c2ccc(Cl)cc2oc2c(CNc3ccc(S(=O)(=O)Nc4nccs4)cc3)cccc12`
Result string: > 100 µM

Query string: Could you please provide reported TGI for COC(=O)C1Cc2c([nH]c3ccccc23)C(c2ccccc2O)N1 (configuration not stated) ? Thanks!
Result string: > 100 µM

Query string: Return value of TGI for input `CC(=O)c1cc(I)c(O)c2ncccc12` , no commentary.
Result string: 6.97 µM

Query string: Fill in reported TGI for this entry: `c1ccc2c(CC3NCCN3)cccc2c1`
Result string: > 100 µM

Query string: Consider the compound C=C1C(=O)OC2/C=C(/CO)C3(O)CC(O)C(C)(CC(OC(=O)/C(C)=C/C)C12)O3 (configuration not stated) and give its recorded TGI.
Result string: 29.8 µM

Query string: Answer with the recorded TGI for the compound listed here: Cc1nn(C(=O)c2ccccc2O)c2c1C(c1ccco1)SC(N)=N2 (configuration not stated)
Result string: > 10 µM

Query string: Please look at this compound and report its TGI: `CN(/N=C(\C(=O)O)c1ccccc1)C1=NCCN1`
Result string: > 100 µM

Query string: Note TGI for the compound shown: `CCCN(CCC)c1ccc(CO)c(Cl)c1`
Result string: > 78.5 µM

Query string: Specify reported TGI for the compound shown: `Cc1ccc(Cc2nc(=S)[nH][nH]2)cc1`
Result string: > 100 µM

Query string: Look up and report measured TGI for this entry: `CC(=O)OCCOCn1c2c(c(=O)[nH]c1=O)CCC2`
Result string: > 100 µM

Query string: Identify TGI associated with the compound CC(=O)N1C(Nc2cnc3ccccc3c2)CCN1c1ccccc1 (configuration not stated)
Result string: > 10 µM

Query string: Give the value of TGI reported for the following: CC12OC3(C)OC(=O)C(c4ccccc4)(O1)C3(C)O2 (configuration not stated)
Result string: > 100 µM

Query string: Answer with reported TGI of `COC1(OC)CC(CO)(CNc2nc(N)nc(Cl)c2C=O)C1`
Result string: > 100 µM

Query string: Give the measured TGI for `O=C(N/N=C(\CN1CCN(c2cc3[nH]cc(C(=O)O)c(=O)c3cc2F)CC1)c1ccc(Cl)cc1)c1ccncc1`
Result string: 58 µM

Query string: Dear colleague, please send me the reported TGI for `O=C(OCCOC(=O)c1ccc2c(c1)C1(SCCS1)c1ccccc1-2)c1ccc2c(c1)C1(SCCS1)c1ccccc1-2` when you can.
Result string: > 100 µM
